The reported measurements were obtained from patent US20190359687A1.

Reported fluorescence intensity is given for each of the following binders.
Biological target: T1, human glycophorin A in the red blood cell membrane (human, UniProt P02724 20-150)
T1 construct: whole, on cells; used for intact RBC, isolated RBC membranes and transfected cells; the assay field tells which; also called GPA; hGPA
T1 sequence (looked up): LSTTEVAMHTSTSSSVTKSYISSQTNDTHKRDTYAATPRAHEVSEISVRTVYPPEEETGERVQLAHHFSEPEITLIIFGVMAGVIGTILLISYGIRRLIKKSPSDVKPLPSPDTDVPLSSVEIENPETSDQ
Experiment: FACS, RBC Hu02
Just the number.

Known fluorescence intensity results, listed for orientation:
1) Hu6C12-19 (antibody, V domains shown, IgG format; VH.1b + Vk.1b) VH: EVQLVQSGAEVKKPGASVKVSCKASGYTFTTYTIHWVRQAPGQGLEWMGYINPSSDYTRYNPKFKDRVTMTTDTSTSTAYMELRSLRSDDTAVYYCATGTRDYWGQGTTVTVSS VL: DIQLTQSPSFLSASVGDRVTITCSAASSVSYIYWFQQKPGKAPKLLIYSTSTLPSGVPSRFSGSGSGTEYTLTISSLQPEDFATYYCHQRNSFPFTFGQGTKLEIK ... 1270
2) Hu6C12-15 (antibody, V domains shown, IgG format; VH.1f + Vk.1a) VH: EVQLVQSGAEVKKPGASVKVSCKASGYTFTTYTIHWVRQAPGQGLEWMGYINPSSDYTRYNPKFKDRVTLTTDTSTSTAYMELRSLRSDDTAVYYCQTGTRDYWGQGTTVTVSS VL: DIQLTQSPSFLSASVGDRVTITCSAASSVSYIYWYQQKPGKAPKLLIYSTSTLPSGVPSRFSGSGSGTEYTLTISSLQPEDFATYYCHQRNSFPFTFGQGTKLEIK ... 375
3) Hu6C12-10 (antibody, V domains shown, IgG format; VH.1a + Vk.1a) VH: EVQLVQSGAEVKKPGASVKVSCKASGYTFTTYTIHWVRQAPGQGLEWMGYINPSSDYTRYNPKFKDRVTMTTDTSTSTAYMELRSLRSDDTAVYYCQRGTRDYWGQGTTVTVSS VL: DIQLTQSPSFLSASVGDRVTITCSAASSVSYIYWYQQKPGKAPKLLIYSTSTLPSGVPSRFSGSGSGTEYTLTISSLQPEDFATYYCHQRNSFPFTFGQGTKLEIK ... 3
4) Hu6C12-24 (antibody, V domains shown, IgG format; VH.1g + Vk.1b) VH: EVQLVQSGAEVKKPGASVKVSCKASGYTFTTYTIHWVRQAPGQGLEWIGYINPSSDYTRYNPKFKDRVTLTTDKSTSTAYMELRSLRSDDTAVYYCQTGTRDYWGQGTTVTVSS VL: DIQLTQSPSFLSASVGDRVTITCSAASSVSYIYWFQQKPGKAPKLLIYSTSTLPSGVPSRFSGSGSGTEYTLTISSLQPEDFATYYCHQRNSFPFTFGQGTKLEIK ... 1850

Let us examine a further case.
Reported fluorescence intensity ( Hu6C12-16 (antibody, V domains shown, IgG format; VH.1g + Vk.1a) VH: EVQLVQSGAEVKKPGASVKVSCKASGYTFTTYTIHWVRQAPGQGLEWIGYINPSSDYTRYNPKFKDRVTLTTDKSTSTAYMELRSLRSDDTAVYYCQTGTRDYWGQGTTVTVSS VL: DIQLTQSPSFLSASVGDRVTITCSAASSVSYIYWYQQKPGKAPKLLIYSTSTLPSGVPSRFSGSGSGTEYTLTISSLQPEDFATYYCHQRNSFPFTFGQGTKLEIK ) = 637
